Reference source: paper PMC6274517

# Tested on: SK-N-SH
# measurement.description: MTT antiproliferative assay, SK-N-SH
# Format: cell-based, human
# assay.conditions: Homo sapiens, SK-N-SH, 72 h exposure, mean ± SD of three experiments
Overview of recorded IC50 for various compounds
observation.type: IC50 (µM)

- record.smiles: "O=C(/C=C/c1cccs1)c1ccc(OCCCn2cc(CSc3nc4ccccc4s3)nn2)cc1"
  experimental.system: "SK-N-SH"
  unit.symbol: "µM"
  modifier: "="
  reading: 37.8
- record.smiles: "O=C(/C=C/c1ccc(Cl)cc1)c1ccc(OCCCn2cc(CSC3=NCCS3)nn2)cc1"
  experimental.system: "SK-N-SH"
  unit.symbol: "µM"
  modifier: "="
  reading: 19.3
- record.smiles: "O=C(/C=C/c1cccnc1)c1ccc(OCCCn2cc(CSc3nc4ccccc4s3)nn2)cc1"
  experimental.system: "SK-N-SH"
  unit.symbol: "µM"
  modifier: "="
  reading: 14.8
- record.smiles: "O=C(/C=C/c1ccc(Cl)cc1)c1ccc(OCCCn2cc(CSc3nc4ccccc4s3)nn2)cc1"
  experimental.system: "SK-N-SH"
  unit.symbol: "µM"
  modifier: ">"
  reading: 100

----------
# Tested on: SK-N-SH
# measurement.description: MTT antiproliferative assay, SK-N-SH
# Format: cell-based, human
# assay.conditions: Homo sapiens, SK-N-SH, 72 h exposure, mean ± SD of three experiments

- record.smiles: "O=C(/C=C/c1cccs1)c1ccc(OCCCn2cc(CSc3nncs3)nn2)cc1"
  IC50: "21 µM"
- record.smiles: "O=C(/C=C/c1cccnc1)c1ccc(OCCCn2cc(CSC3=NCCS3)nn2)cc1"
  IC50: "47.3 µM"
- record.smiles: "Cn1nnnc1SCc1cn(CCCOc2ccc(C(=O)/C=C/c3cccs3)cc2)nn1"
  IC50: "29.3 µM"
- record.smiles: "Cn1nnnc1SCc1cn(CCCOc2ccc(C(=O)/C=C/c3ccc(Cl)cc3)cc2)nn1"
  IC50: "28.4 µM"

----------
# Tested on: SK-N-SH
# measurement.description: MTT antiproliferative assay, SK-N-SH
# Assay type: cell-based, human
# assay.conditions: Homo sapiens, SK-N-SH, 72 h exposure, mean ± SD of three experiments
Lab note: cut-off is 7 µM. Strictly less in IC50 is class 1. Exactly 7 µM or more is class 0.

- compound: "O=c1[nH]cc(F)c(=O)[nH]1 [Compound 5-FU, 5-fluorouracil, reference compound]"
  experimental.system: "SK-N-SH"
  label.value: "class 0"
- compound: "O=C(/C=C/c1ccc(Cl)cc1)c1ccc(OCCCn2cc(CSc3nncs3)nn2)cc1"
  experimental.system: "SK-N-SH"
  label.value: "class 1"
- compound: "Cn1nnnc1SCc1cn(CCCOc2ccc(C(=O)/C=C/c3cccnc3)cc2)nn1"
  experimental.system: "SK-N-SH"
  label.value: "class 1"
- compound: "O=C(/C=C/c1cccs1)c1ccc(OCCCn2cc(CSC3=NCCS3)nn2)cc1"
  experimental.system: "SK-N-SH"
  label.value: "class 0"
- compound: "O=C(/C=C/c1cccnc1)c1ccc(OCCCn2cc(CSc3nncs3)nn2)cc1"
  experimental.system: "SK-N-SH"
  label.value: "class 0"
- compound: "COc1cc(/C=C/C(=O)c2ccc(OCCCn3cc(CSC4=NCCS4)nn3)cc2)cc(OC)c1OC"
  experimental.system: "SK-N-SH"
  label.value: "class 1"

----------
The entries below come with measured melting point values attached.

- molecule: "O=C(/C=C/c1cccnc1)c1ccc(OCCCn2cc(CSc3nncs3)nn2)cc1 [Compound I-22]"
  melting point: "146 to 149 °C"
- molecule: "O=C(/C=C/c1cccs1)c1ccc(OCCCn2cc(CSC3=NCCS3)nn2)cc1 [Compound I-16]"
  melting point: "104 to 106 °C"
- molecule: "O=C(/C=C/c1ccc(Cl)cc1)c1ccc(OCCCn2cc(CSc3nncs3)nn2)cc1 [Compound I-20]"
  melting point: "143 to 145 °C"
- molecule: "Cn1nnnc1SCc1cn(CCCOc2ccc(C(=O)/C=C/c3cccnc3)cc2)nn1 [Compound I-26]"
  melting point: "151 to 153 °C"
- molecule: "COc1cc(/C=C/C(=O)c2ccc(OCCCn3cc(CSc4nnnn4C)nn3)cc2)cc(OC)c1OC [Compound I-25]"
  melting point: "105 to 107 °C"
- molecule: "Cn1nnnc1SCc1cn(CCCOc2ccc(C(=O)/C=C/c3cccs3)cc2)nn1 [Compound I-27]"
  melting point: "129 to 130 °C"
- molecule: "O=C(/C=C/c1cccnc1)c1ccc(OCCCn2cc(CSC3=NCCS3)nn2)cc1 [Compound I-15]"
  melting point: "149 to 151 °C"
- molecule: "O=C(/C=C/c1ccc(Cl)cc1)c1ccc(OCCCn2cc(CSC3=NCCS3)nn2)cc1 [Compound I-13]"
  melting point: "151 to 153 °C"

----------
# Tested on: MGC-803
# measurement.description: MTT antiproliferative assay, MGC-803
# Format: cell-based, human
# assay.conditions: Homo sapiens, MGC-803, 72 h exposure, mean ± SD of three experiments
pIC50: −log10 of the molar value.
Measured pIC50, listed per entry.

- molecule: "COc1cc(/C=C/C(=O)c2ccc(OCCCn3cc(CSC4=NCCS4)nn3)cc2)cc(OC)c1OC [Compound I-14]"
  pIC50: 5.07
- molecule: "O=C(/C=C/c1cccnc1)c1ccc(OCCCn2cc(CSc3nncs3)nn2)cc1 [Compound I-22]"
  pIC50: 5.35
- molecule: "COc1cc(/C=C/C(=O)c2ccc(OCCCn3cc(CSc4nnnn4C)nn3)cc2)cc(OC)c1OC [Compound I-25]"
  pIC50: 5.25
- molecule: "O=C(/C=C/c1cccnc1)c1ccc(OCCCn2cc(CSC3=NCCS3)nn2)cc1 [Compound I-15]"
  pIC50: 4.19
- molecule: "O=C(/C=C/c1cccs1)c1ccc(OCCCn2cc(CSc3nc4ccccc4s3)nn2)cc1 [Compound I-19]"
  pIC50: 4.61
- molecule: "O=c1[nH]cc(F)c(=O)[nH]1 [Compound 5-FU, 5-fluorouracil, reference compound]"
  pIC50: 5.15
- molecule: "Cn1nnnc1SCc1cn(CCCOc2ccc(C(=O)/C=C/c3ccc(Cl)cc3)cc2)nn1 [Compound I-24]"
  pIC50: 4.30
- molecule: "O=C(/C=C/c1ccc(Cl)cc1)c1ccc(OCCCn2cc(CSc3nncs3)nn2)cc1 [Compound I-20]"
  pIC50: 4.33
- molecule: "Cn1nnnc1SCc1cn(CCCOc2ccc(C(=O)/C=C/c3cccs3)cc2)nn1 [Compound I-27]"
  pIC50: 4.42
- molecule: "O=C(/C=C/c1cccs1)c1ccc(OCCCn2cc(CSc3nncs3)nn2)cc1 [Compound I-23]"
  pIC50: 4.82
- molecule: "O=C(/C=C/c1ccc(Cl)cc1)c1ccc(OCCCn2cc(CSc3nc4ccccc4s3)nn2)cc1 [Compound I-17]"
  pIC50: 4.42
- molecule: "O=C(/C=C/c1cccs1)c1ccc(OCCCn2cc(CSC3=NCCS3)nn2)cc1 [Compound I-16]"
  pIC50: 5.06
- molecule: "O=C(/C=C/c1ccc(Cl)cc1)c1ccc(OCCCn2cc(CSC3=NCCS3)nn2)cc1 [Compound I-13]"
  pIC50: 4.43
- molecule: "O=C(/C=C/c1cccnc1)c1ccc(OCCCn2cc(CSc3nc4ccccc4s3)nn2)cc1 [Compound I-18]"
  pIC50: 5.20
- molecule: "Cn1nnnc1SCc1cn(CCCOc2ccc(C(=O)/C=C/c3cccnc3)cc2)nn1 [Compound I-26]"
  pIC50: 5.25

----------
The entries below come with measured melting point values attached.

- record.smiles: "O=C(/C=C/c1ccc(Cl)cc1)c1ccc(OCCCn2cc(CSc3nc4ccccc4s3)nn2)cc1"
  melting point: "172 to 174 °C"
- record.smiles: "COc1cc(/C=C/C(=O)c2ccc(OCCCn3cc(CSC4=NCCS4)nn3)cc2)cc(OC)c1OC"
  melting point: "169 to 171 °C"
- record.smiles: "Cn1nnnc1SCc1cn(CCCOc2ccc(C(=O)/C=C/c3ccc(Cl)cc3)cc2)nn1"
  melting point: "149 to 150 °C"
- record.smiles: "O=C(/C=C/c1cccnc1)c1ccc(OCCCn2cc(CSc3nc4ccccc4s3)nn2)cc1"
  melting point: "144 to 146 °C"
